Assay: inhibitors of DENV2 cytopathic effect, primary screen, cell-based, plate reader, single concentration (AID 651640);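 further: 0% = median of neutral control wells and 100% = median of positive control wells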
Details: DENV2-infected cells, cytopathic effect rescue, at 9.99 µM, active compounds read high
About 6,000 (1.7%) of roughly 350,000 compounds were called active. Another 5% or so got no clear call; they are omitted. For the sample, actives were picked, then their nearest neighbours and some compounds at random.
MEASURED METRIC: CPE inhibition (%)
Supply the numeric figure in %, leaving out any unit text.

Some molecules with recorded CPE inhibition:
Param item = CN(C)CC(=O)N1CC2(C1)[C@H](c1ccccc1)[C@@H](CO)N2C(=O)C1CCCCC1 ; retrieve measured CPE inhibition.
-1.45

Item CCN(CC)S(=O)(=O)c1ccc(OC)c(NC(=O)CCc2c(C)noc2C)c1 has what recorded CPE inhibition?
-4.63

For the molecule CCN(CC)S(=O)(=O)c1ccc(C)c(NC(=O)COc2ccc(Br)cc2Cl)c1 , what CPE inhibition is on record?
52.1

Now for the molecule whose CPE inhibition we want.
Fill in: CPE inhibition of C[C@H](CO)N1C[C@H](C)[C@@H](CN(C)C(=O)Nc2ccc3c(c2)OCO3)Oc2ccc(NC(=O)NC3CCCCC3)cc2CC1=O is ___
9.47

----------
Assay: inhibitors of DENV2 cytopathic effect, primary screen, cell-based, plate reader, single concentration (AID 651640);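 further: 0% = median of neutral control wells and 100% = median of positive control wells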
Conditions: DENV2-infected cells, cytopathic effect rescue, at 9.99 µM, active compounds read high
Out of some 350,000 compounds screened, about 6,000 (1.7%) were called active. Another 5% or so got no clear call; they are omitted. Only a selection was taken, and actives are over-represented in it overall.
MEASURED METRIC: CPE inhibition (%)
Numbers only here, please. The scale is %.

Recorded results for 10 compounds are shown here.
So what does the record say about CPE inhibition for C[C@@H]1CCCCO[C@@H](CN(C)C(=O)C2CCCCC2)[C@H](C)CN([C@H](C)CO)C(=O)c2cc(NC(=O)Cc3ccccc3)ccc2O1 ?
-2.34

I'd like to know its CPE inhibition. The compound in question is COc1cc(C(=O)OCCCN2CCOCC2)cc(OC)c1OC
49.2

GET /values?readout=CPE inhibition&item= O=C(NCCCN1CCCCC1)C1CC(=O)N(CCc2ccccc2)C1 (stereo not drawn)
4.06

# query: CPE inhibition of entry Cc1noc(C)c1S(=O)(=O)Nc1ccc2c(c1)CC(=O)N([C@@H](C)CO)C[C@@H](C)[C@@H](CN(C)C(=O)Nc1ccc(C(F)(F)F)cc1)O2
46.5

Using the record for COc1ccc(NC(=O)Nc2ccc3c(c2)C(=O)N([C@@H](C)CO)C[C@@H](C)[C@@H](CN(C)Cc2ccncc2)OCCCC[C@@H](C)O3)cc1 , report its CPE inhibition.
-9.1

What value of CPE inhibition has been recorded for this entry: CS(=O)(=O)N1CC2(C1)[C@H](c1ccccc1)[C@@H](CO)N2C(=O)c1ccccc1
0.143

Sample COc1ccc2c3c([nH]c2c1)[C@@H](CO)N(C(=O)c1cccc(F)c1)CC31CN(C(C)=O)C1 — what was its CPE inhibition?
-11.3

For the compound shown here, CN(C)C(=O)C[C@@H]1C=C[C@H](NC(=O)Nc2cccc(F)c2)[C@H](CO)O1 , give the reported CPE inhibition.
-10

Name the recorded CPE inhibition for COc1ccc(-c2cc(NC=O)c3ncc(-c4ccccc4)n3c2)cc1OC .
8.91

Please report the recorded CPE inhibition for Cc1cccc(C(=O)NC2CCN(CC(=O)Nc3cccc(Cl)c3)CC2)c1 .
39

Continuing:
Endpoint output: CPE inhibition of CCN1C(=O)[C@H]2[C@@H](c3ccccc3)N[C@]3(CCCN(Cc4ccc(C)cc4)C3=O)[C@H]2C1=O . Value?
-9.89

For the compound CCCNC(=O)[C@H]1[C@H](CO)[C@H]2Cn3c(cccc3=O)[C@H]2N1Cc1ccccc1Cl , what CPE inhibition is on record?
140

Consider the compound Cc1ccc(C(=O)Oc2ccc(C(=S)N3CCOCC3)cc2)cc1 and give its measured CPE inhibition.
12.3

# input compound: C[C@@H]1CN([C@@H](C)CO)C(=O)c2cc(NC(=O)Cn3cnnn3)ccc2O[C@H]1CN(C)Cc1ccc(C(F)(F)F)cc1 ; wanted: its CPE inhibition
-5.69

I have this compound here, O=C(C[C@H]1CC[C@H]2[C@@H](COC[C@@H](O)CN2S(=O)(=O)c2ccc(Cl)cc2)O1)NCCN1CCCCC1 , and I need its recorded CPE inhibition.
23.7

Entry COc1ccc(-c2cn(CC[C@H]3CC[C@@H](NC(=O)CCN4CCCCC4)[C@H](CO)O3)nn2)cc1 : reported CPE inhibition = ?
-5.26

# CPE inhibition lookup, item COc1ccc(S(=O)(=O)Nc2ccc3c(c2)CC(=O)N([C@H](C)CO)C[C@H](C)[C@H](CN(C)C(=O)Nc2ccccc2)O3)cc1
-6.98

# get_value(readout='CPE inhibition', item= COc1ccc(-c2cc(NC=O)c3ncc(-c4cccc(C(=O)N(C)C)c4)n3c2)c(OC)c1 )
-8.87

Measured values drawn from PubChem BioAssay AID651640 for this set.
